Where do the numbers come from? From BigSolDB 2.1.

Reported solubility (mole fraction) by item:
SETTINGS: in DMF, 313.15 K

O=C(/C=C/c1ccc(-c2cccc([N+](=O)[O-])c2)o1)c1ccc(O)cc1 | 0.0068
O=C(/C=C/c1ccc(-c2cccc([N+](=O)[O-])c2)o1)c1ccccc1 | 0.0101
O=C(/C=C/c1ccc(-c2cccc([N+](=O)[O-])c2)o1)c1ccc(Br)cc1 | 0.00722
COc1ccc(C(=O)/C=C/c2ccc(-c3cccc([N+](=O)[O-])c3)o2)cc1 | 0.0113

Okay, now this compound:
Exercise: Consider the compound O=C(/C=C/c1ccc(-c2cccc([N+](=O)[O-])c2)o1)c1ccc2ccc(=O)oc2c1 and give its measured solubility (mole fraction).
Solution: 0.0072

---

Reported solubility (mole fraction) by item:
SETTINGS: in 1,4-dioxane, 318.15 K
No unit in the answer, please; the number alone is enough.

Solved cases (5 shown):
COc1ccc(C(=O)/C=C/c2ccc(-c3cccc([N+](=O)[O-])c3)o2)cc1 | 0.00744
O=C(/C=C/c1ccc(-c2cccc([N+](=O)[O-])c2)o1)c1cccc([N+](=O)[O-])c1 | 0.00608
O=C(/C=C/c1ccc(-c2cccc([N+](=O)[O-])c2)o1)CO | 0.00714
O=C(/C=C/c1ccc(-c2cccc([N+](=O)[O-])c2)o1)c1ccc(O)cc1 | 0.00592
O=C(/C=C/c1ccc(-c2cccc([N+](=O)[O-])c2)o1)c1ccccc1 | 0.00573

Exercise: Consider the molecule O=C(/C=C/c1ccc(-c2cccc([N+](=O)[O-])c2)o1)c1ccc(Br)cc1 and give its measured solubility (mole fraction).
Solution: 0.00501

Exercise: Consider the molecule O=C(/C=C/c1ccc(-c2cccc([N+](=O)[O-])c2)o1)c1ccc2ccc(=O)oc2c1 and give its measured solubility (mole fraction).
Solution: 0.00628

Exercise: Consider the molecule O=C(/C=C/c1ccc(-c2cccc([N+](=O)[O-])c2)o1)c1ccc([N+](=O)[O-])cc1 and give its measured solubility (mole fraction).
Solution: 0.00245

Exercise: Consider the molecule O=C(/C=C/c1ccc(-c2cccc([N+](=O)[O-])c2)o1)c1ccc(Cl)cc1 and give its measured solubility (mole fraction).
Solution: 0.00284

Exercise: Consider the molecule Nc1ccc(C(=O)/C=C/c2ccc(-c3cccc([N+](=O)[O-])c3)o2)cc1 and give its measured solubility (mole fraction).
Solution: 0.00255

---

SETTINGS: in DMF, 303.15 K
Reported solubility (mole fraction) by item:

Solved cases (3 shown):
O=C(/C=C/c1ccc(-c2cccc([N+](=O)[O-])c2)o1)c1ccc2ccc(=O)oc2c1 | 0.007
O=C(/C=C/c1ccc(-c2cccc([N+](=O)[O-])c2)o1)c1cccc([N+](=O)[O-])c1 | 0.0061
O=C(/C=C/c1ccc(-c2cccc([N+](=O)[O-])c2)o1)c1ccccc1 | 0.0099

Exercise: Consider the molecule O=C(/C=C/c1ccc(-c2cccc([N+](=O)[O-])c2)o1)c1ccc([N+](=O)[O-])cc1 and give its measured solubility (mole fraction).
Solution: 0.0024

---

Reported solubility (mole fraction) by item:
SETTINGS: in DMF, 318.15 K

Solved cases (8 shown):
O=C(/C=C/c1ccc(-c2cccc([N+](=O)[O-])c2)o1)c1ccc2ccc(=O)oc2c1 | 0.00721
O=C(/C=C/c1ccc(-c2cccc([N+](=O)[O-])c2)o1)c1ccc(Br)cc1 | 0.00726
O=C(/C=C/c1ccc(-c2cccc([N+](=O)[O-])c2)o1)c1ccc(O)cc1 | 0.00692
O=C(/C=C/c1ccc(-c2cccc([N+](=O)[O-])c2)o1)c1ccccc1 | 0.0101
COc1ccc(C(=O)/C=C/c2ccc(-c3cccc([N+](=O)[O-])c3)o2)cc1 | 0.0114
Nc1ccc(C(=O)/C=C/c2ccc(-c3cccc([N+](=O)[O-])c3)o2)cc1 | 0.00264
O=C(/C=C/c1ccc(-c2cccc([N+](=O)[O-])c2)o1)c1ccc([N+](=O)[O-])cc1 | 0.00248
O=C(/C=C/c1ccc(-c2cccc([N+](=O)[O-])c2)o1)c1ccc(Cl)cc1 | 0.0048

Exercise: Consider the molecule O=C(/C=C/c1ccc(-c2cccc([N+](=O)[O-])c2)o1)CO and give its measured solubility (mole fraction).
Solution: 0.00959

Exercise: Consider the molecule O=C(/C=C/c1ccc(-c2cccc([N+](=O)[O-])c2)o1)c1cccc([N+](=O)[O-])c1 and give its measured solubility (mole fraction).
Solution: 0.0062
